Provide the reported DC50 of each item.
- tested.target: IRAK4 (Homo sapiens)
- Construct: Degradation of IRAK4 in OCI-LY10 was quantitatively measured using Meso Scale Discovery technology; endogenous in cells; host or cells: OCI-LY10
- Sequence (Q9NWZ3 whole entry): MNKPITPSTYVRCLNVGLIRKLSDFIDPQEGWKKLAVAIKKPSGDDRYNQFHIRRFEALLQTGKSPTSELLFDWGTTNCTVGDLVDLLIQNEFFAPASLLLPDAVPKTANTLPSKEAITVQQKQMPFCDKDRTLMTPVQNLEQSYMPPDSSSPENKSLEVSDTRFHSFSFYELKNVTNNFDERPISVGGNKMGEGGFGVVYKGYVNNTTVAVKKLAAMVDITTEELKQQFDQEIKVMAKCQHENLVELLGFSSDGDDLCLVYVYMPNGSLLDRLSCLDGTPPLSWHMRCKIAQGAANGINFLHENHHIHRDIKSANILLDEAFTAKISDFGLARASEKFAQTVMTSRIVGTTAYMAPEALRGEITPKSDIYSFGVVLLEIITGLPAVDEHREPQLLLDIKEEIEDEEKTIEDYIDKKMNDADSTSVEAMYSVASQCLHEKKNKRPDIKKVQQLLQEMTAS
- method.notes: IRAK4 MSD Degradation in OCI-LY10
- Format: cell-based
- condition.notes: OCI-LY10 cells, 4 hrs incubation, MSD; read-out: IRAK4 degradation in OCI-LY10 at 4 hrs: DC50

Would you please look over these solved cases?
compound | DC50
Cn1c(=O)n(C2CCC(=O)NC2=O)c2cccc([C@H]3C[C@H](COC4CN(C[C@H]5CC[C@H](n6cc(NC(=O)c7cnn8ccc(N9C[C@H]%10C[C@@H]9CO%10)nc78)c(C(F)F)n6)CC5)C4)C3)c21 (stereo partly drawn) [I-598] | > 200 nM
Cn1c(=O)n(C2CCC(=O)NC2=O)c2cccc(C#CCN3CCN(C[C@H]4CC[C@H](n5cc(NC(=O)c6cnn7ccc(N8C[C@H]9C[C@@H]8CO9)nc67)c(C(C)(C)O)n5)CC4)CC3)c21 (stereo partly drawn) [I-279] | > 200 nM
O=C1CCN(c2cccc(C#CCN3CCN(C[C@H]4CC[C@H](n5cc(NC(=O)c6cnn7ccc(N8C[C@H]9C[C@@H]8CO9)nc67)c(C(F)F)n5)CC4)CC3)c2)C(=O)N1 [I-123] | > 200 nM

Give DC50 for all compounds that follow.
1. Cn1c(=O)n(C2CCC(=O)NC2=O)c2cccc(CCCN3CCN(C(C#N)[C@H]4CC[C@H](n5cc(NC(=O)c6cnn7ccc(N8C[C@H]9C[C@@H]8CO9)nc67)c(C(F)F)n5)CC4)CC3)c21 (stereo partly drawn) [I-197]
2. CC1CN(c2ccn3ncc(C(=O)Nc4cn([C@H]5CC[C@H](CN(C)C6CCN(c7cccc8c7n(C)c(=O)n8C7CCC(=O)NC7=O)CC6)CC5)nc4C(F)F)c3n2)CCO1 (stereo partly drawn) [I-358]
3. Cn1c(=O)n(C2CCC(=O)NC2=O)c2cccc(C#CCO[C@H]3CCCN(C[C@H]4CC[C@H](n5cc(NC(=O)c6cnn7ccc(N8C[C@H]9C[C@@H]8CO9)nc67)c(C(F)F)n5)CC4)C3)c21 (stereo partly drawn) [I-128]
4. O=C1CCC(c2cccc(C#CCOC3CCN(C[C@H]4CC[C@H](n5cc(NC(=O)c6cnn7ccc(N8C[C@H]9C[C@@H]8CO9)nc67)c(C(F)F)n5)CC4)CC3)c2)C(=O)N1 (stereo partly drawn) [I-199]
5. Cn1c(=O)n(C2CCC(=O)NC2=O)c2cccc(C#CCN3CCN(C[C@H]4CC[C@H](n5cc(NC(=O)c6cnn7ccc(N8CCC9(CC8)COC9)nc67)c(C(F)F)n5)CC4)CC3)c21 (stereo partly drawn) [I-296]
6. Cn1c(=O)n(C2CCC(=O)NC2=O)c2cccc(N3CC(CCC4(F)CN(C[C@H]5CC[C@H](n6cc(NC(=O)c7cnn8ccc(N9C[C@H]%10C[C@@H]9CO%10)nc78)c(C(F)F)n6)CC5)C4)C3)c21 (stereo partly drawn) [I-785]
7. COc1cc2nn([C@H]3CC[C@H](CN4CC[C@@H](c5cccc6c5n(C)c(=O)n6C5CCC(=O)NC5=O)[C@H](F)C4)CC3)cc2cc1NC(=O)c1cccc(C(F)(F)F)n1 (stereo partly drawn) [I-783]

Out:
["10 to 100 nM", "> 200 nM", "10 to 100 nM", "> 200 nM", "10 to 100 nM", "> 200 nM", "> 200 nM"]

Give DC50 for all compounds that follow.
1. COc1cc2nn([C@H]3CC[C@H](CN4CC=C(c5cccc6c(N7CCC(=O)NC7=O)cncc56)C(F)(F)C4)CC3)cc2cc1NC(=O)c1cccc(C(F)(F)F)n1 [I-466]
2. O=C1CCN(c2cncc3c(N4CCN(C5CCN(C[C@H]6CC[C@H](n7cc(NC(=O)c8cnn9ccc(N%10C[C@H]%11C[C@@H]%10CO%11)nc89)c(C(F)F)n7)CC6)CC5)CC4)cccc23)C(=O)N1 [I-76]

Out:
["> 200 nM", "< 10 nM"]
